As an illustration, consider measured pIC50 for compounds on Epidermal growth factor receptor (Homo sapiens).
Sequence (P00533 whole entry): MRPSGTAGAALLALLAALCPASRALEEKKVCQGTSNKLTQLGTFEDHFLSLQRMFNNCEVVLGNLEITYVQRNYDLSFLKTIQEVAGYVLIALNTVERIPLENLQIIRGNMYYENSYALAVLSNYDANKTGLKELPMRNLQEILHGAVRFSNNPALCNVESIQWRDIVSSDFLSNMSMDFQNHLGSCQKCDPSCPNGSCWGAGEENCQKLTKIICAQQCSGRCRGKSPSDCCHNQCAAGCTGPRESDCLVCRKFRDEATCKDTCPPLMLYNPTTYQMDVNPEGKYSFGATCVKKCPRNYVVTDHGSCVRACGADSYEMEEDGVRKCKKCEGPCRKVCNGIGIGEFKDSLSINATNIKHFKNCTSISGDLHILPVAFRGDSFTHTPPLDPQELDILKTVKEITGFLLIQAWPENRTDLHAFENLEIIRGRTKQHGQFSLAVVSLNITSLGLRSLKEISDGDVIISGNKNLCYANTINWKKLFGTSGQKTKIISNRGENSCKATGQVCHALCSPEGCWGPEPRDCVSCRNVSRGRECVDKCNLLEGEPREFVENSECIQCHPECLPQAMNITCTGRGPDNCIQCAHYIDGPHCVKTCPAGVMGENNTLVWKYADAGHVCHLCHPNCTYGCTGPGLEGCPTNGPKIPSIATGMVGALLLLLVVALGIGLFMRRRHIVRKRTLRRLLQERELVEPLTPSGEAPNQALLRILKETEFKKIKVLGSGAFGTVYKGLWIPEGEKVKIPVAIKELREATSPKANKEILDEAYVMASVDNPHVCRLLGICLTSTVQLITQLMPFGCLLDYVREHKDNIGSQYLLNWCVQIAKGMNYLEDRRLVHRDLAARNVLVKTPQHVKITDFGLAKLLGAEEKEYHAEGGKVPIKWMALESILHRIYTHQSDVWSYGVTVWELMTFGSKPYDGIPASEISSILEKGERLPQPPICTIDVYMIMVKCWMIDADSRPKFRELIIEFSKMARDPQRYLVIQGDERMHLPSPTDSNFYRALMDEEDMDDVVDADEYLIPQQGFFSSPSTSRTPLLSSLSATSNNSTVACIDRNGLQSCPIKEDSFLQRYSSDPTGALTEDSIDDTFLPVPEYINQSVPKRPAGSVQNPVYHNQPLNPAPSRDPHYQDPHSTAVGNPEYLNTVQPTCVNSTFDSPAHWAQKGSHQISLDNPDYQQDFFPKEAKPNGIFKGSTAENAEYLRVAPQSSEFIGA
pIC50: −log10 of the molar value.

Query block: Form field - read-out: pIC50; system: Epidermal growth factor receptor (Homo sapiens); submitted item: CCC(=O)N1CCC[C@@H](n2c(=O)c(-c3ccccc3Cl)c(C)c3cnc(Nc4ccc(N5CCN(C)CC5)c(C)c4)nc32)C1 (stereo in doubt; 8f-B)
Result block: < 6.00

Query block: Please state recorded pIC50 (tested on Epidermal growth factor receptor (Homo sapiens)) of CCC(=O)N1CC[C@@H](n2c(=O)c(-c3ccccc3Cl)c(C)c3cnc(Nc4ccc(N5CCN(C)CC5)c(C)c4)nc32)C1 (stereo in doubt; 8g-A)
Result block: < 6.00

Query block: Field: pIC50 (Epidermal growth factor receptor (Homo sapiens)). Entry: CCC(=O)N1CCC[C@@H](n2c(=O)c(-c3cc(F)ccc3Cl)c(C)c3cnc(Nc4ccc(N5CCN(C)CC5)c(C)c4)nc32)C1 (stereo in doubt; 8p-B)
Result block: < 6.00

Query block: What value of pIC50 on Epidermal growth factor receptor (Homo sapiens) does `CCC(=O)N1CCC[C@@H](n2c(=O)c(-c3cccc(Cl)c3)c(C)c3cnc(Nc4ccc(N5CCN(C)CC5)c(C)c4)nc32)C1` have?
Result block: < 6.00

Query block: Look up pIC50 with Epidermal growth factor receptor (Homo sapiens) for this compound: CCC(=O)N[C@H]1CC[C@@H](n2c(=O)c(-c3ccccc3Cl)c(C)c3cnc(Nc4ccc(N5CCN(C)CC5)c(C)c4)nc32)CC1 (stereo in doubt; 8c-A)
Result block: < 6.00

Query block: Look up pIC50 with Epidermal growth factor receptor (Homo sapiens) for this compound: CCC(=O)N1CCC[C@@H](n2c(=O)c(-c3ccccc3Cl)c(C)c3cnc(Nc4ccc(N5CCN(C)CC5)c(C)c4)nc32)C1 (stereo in doubt; 8f-A)
Result block: < 6.00

Query block: Identify the measured pIC50 of CCC(=O)N1CCC[C@@H](n2c(=O)c(-c3ccc(F)cc3Cl)c(C)c3cnc(Nc4ccc(N5CCN(C)CC5)c(C)c4)nc32)C1 (stereo in doubt; 8q-B) for Epidermal growth factor receptor (Homo sapiens).
Result block: < 6.00

Query block: # value lookup — system Epidermal growth factor receptor (Homo sapiens), readout pIC50, item CCC(=O)N1CC[C@@H](n2c(=O)c(-c3ccccc3Cl)c(C)c3cnc(Nc4ccc(N5CCN(C)CC5)c(C)c4)nc32)C1 (stereo in doubt; 8g-B)
Result block: < 6.00

Query block: # value lookup — system Epidermal growth factor receptor (Homo sapiens), readout pIC50, item CCC(=O)N[C@H]1CC[C@@H](n2c(=O)c(-c3ccccc3Cl)c(C)c3cnc(Nc4ccc(N5CCN(C)CC5)c(C)c4)nc32)CC1 (stereo in doubt; 8c-B)
Result block: 6.77

Query block: Lab request: please report pIC50 under test system Epidermal growth factor receptor (Homo sapiens) for CCC(=O)N1CCC[C@H](n2c(=O)c(-c3ccccc3Cl)c(C)c3cnc(Nc4ccc(N5CCN(C)CC5)c(C)c4)nc32)C1 (stereo in doubt; 8e-A)
Result block: < 6.00

Query block: Test system Epidermal growth factor receptor (Homo sapiens); read-out pIC50; what value for CCC(=O)N1CCC[C@@H](n2c(=O)c(-c3ccccc3Br)c(C)c3cnc(Nc4ccc(N5CCN(C)CC5)c(C)c4)nc32)C1 (stereo in doubt; 8l-A) ?
Result block: < 6.00

Query block: What pIC50 appears in the records for this compound with Epidermal growth factor receptor (Homo sapiens)? CCC(=O)N1CCC[C@H](n2c(=O)c(-c3ccccc3Cl)c(C)c3cnc(Nc4ccc(N5CCN(C)CC5)c(C)c4)nc32)C1 (stereo in doubt; 8e-B)
Result block: < 6.00
